EXPERIMENT_SUMMARY: Viability qHTS for spleen associated tyrosine kinase inhibitor (SYKi) naive MV4-11 cells (AID 1963823); note: nearly all actives have a fitted effect of over 40% in size
EXPERIMENTAL_CONDITIONS: MV4-11 AML viability, CellTiter-Glo luminescence, 72 h; series mostly up to 45 µM
Records with an inconclusive call do not appear. Activity calls are given as the source filed them. Calls come from the whole dose curve; as a rule, active = well fitted cell-killing curve with a large enough effect; inconclusive = small, poorly fitted or top-dose-only effect, or effect the other way; inactive = no such curve, though single readings can be large or run the other way.
Respond with a class label; see yes (1) for active, no (0) for inactive

>  <MOLECULE>
CC(=O)Nc1nnc(S(N)(=O)=O)s1

>  <ANSWER_LABEL>
no (0)

$$$$
>  <MOLECULE>
CC/C=C\CCO[C@@H]1O[C@H](CO)[C@@H](O)[C@H](O)[C@H]1O

>  <ANSWER_LABEL>
no (0)

$$$$
>  <MOLECULE>
CC1CCN(c2cc(N3CCN(C)CC3)ccc2NC(=O)c2cc(C#N)c[nH]2)CC1

>  <ANSWER_LABEL>
yes (1)

$$$$
>  <MOLECULE>
O=C(Nc1ccc(OC(F)(F)Cl)cc1)c1cnc(N2CC[C@@H](O)C2)c(-c2ccn[nH]2)c1

>  <ANSWER_LABEL>
yes (1)

$$$$
>  <MOLECULE>
Fc1ccc(-c2nc(C3CCNCC3)sc2-c2ccnc(NC3CC3)n2)cc1

>  <ANSWER_LABEL>
yes (1)

$$$$

Asked: Please state the recorded outcome for this molecule: CCC[C@@H]1C[C@@H](C(=O)N[C@@H]([C@H]2O[C@H](SC)[C@H](OP(=O)(O)O)[C@@H](O)[C@H]2O)[C@H](C)Cl)N(C)C1
Given back: no (0)

Asked: // outcome(item) with item = Cc1cc(C(=O)NOCCO)c(Nc2ccc(I)cc2F)n(C)c1=O
Given back: yes (1)

* * *

EXPERIMENT_SUMMARY: Quantitative highthroughput screen to assess conditional lethalithy of P12 Ichikawa cells grown in RPMI1640 with untreated serum (RPMI+s) (AID 1963881); note: nearly all actives have a fitted effect of over 35% in size; note: potency is the fitted concentration of half-maximal effect;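 for viability: 100% = DMSO wells and 0% = empty wells without cells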
EXPERIMENTAL_CONDITIONS: ATP luminescence, 48 h; viability; series mostly up to 45.8 µM
Inconclusive results are not listed. The source made the active and inactive calls. The call rests on the fitted dose curve; in most records, active means well fitted cell-killing curve with a large enough effect; inconclusive means small, poorly fitted or top-dose-only effect; inactive means flat fitted curve, though single readings scatter.
MEASURED_METRIC: Potency

>  <QUERY_SMILES>
Cc1[nH]c2ccccc2c1CCNCc1ccc(C=CC(=O)NO)cc1

>  <Potency>
469 nM (active)

$$$$
>  <QUERY_SMILES>
OC[C@H]1O[C@@H](Oc2cc(O)cc(C=Cc3ccc(O)cc3)c2)[C@H](O)[C@@H](O)[C@H]1O

>  <Potency>
inactive

$$$$
>  <QUERY_SMILES>
COc1cc2ncn(-c3cc(OCc4ccccc4C(F)(F)F)c(C(N)=O)s3)c2cc1OC

>  <Potency>
2090 nM (active)

$$$$
>  <QUERY_SMILES>
NCCCCNCCCN

>  <Potency>
18700 nM (active)

$$$$
>  <QUERY_SMILES>
Cc1cn(-c2cc(NC(=O)c3ccc(C)c(Nc4nccc(-c5cccnc5)n4)c3)cc(C(F)(F)F)c2)cn1

>  <Potency>
1320 nM (active)

$$$$

Kindly consider the entry below.
Asked: Consider the compound NC(=O)c1cnccn1 and give its measured Potency.
Given back: inactive

* * *

EXPERIMENT_SUMMARY: Viability qHTS for spleen associated tyrosine kinase inhibitor (SYKi) naive MV4-11 cells (AID 1963823); note: nearly all actives have a fitted effect of over 40% in size
EXPERIMENTAL_CONDITIONS: MV4-11 AML viability, CellTiter-Glo luminescence, 72 h; series mostly up to 45 µM
Results filed as inconclusive are left out. Calls of active or inactive are those of the source. The call rests on the fitted dose curve; in most records, active means well fitted cell-killing curve with a large enough effect; inconclusive means small, poorly fitted or top-dose-only effect, or effect the other way; inactive means no such curve, though single readings can be large or run the other way.
A correct response names exactly one class from active, inactive

>  <MOLECULE>
C=C1C[C@]23C[C@H]1CC[C@H]2[C@]1(C)CCC[C@@](C)(C(=O)O)[C@H]1[C@@H]3C(=O)O

>  <ANSWER_LABEL>
inactive

$$$$
>  <MOLECULE>
CCOC(=O)C1=C(N)Oc2ccc(Cl)cc2C1C(C#N)C(=O)OCC (stereo unspecified)

>  <ANSWER_LABEL>
inactive

$$$$
>  <MOLECULE>
COc1nc2ccc(Br)cc2cc1[C@@H](c1ccccc1)[C@@](O)(CCN(C)C)c1cccc2ccccc12

>  <ANSWER_LABEL>
active

$$$$

Asked: Outcome? CC(C)c1cc(CNc2nc(Nc3cc(C4CC4)[nH]n3)cc(N3CCN(C)CC3)n2)on1
Given back: active
